- TARGET OF ASSAY: human recombinant PLK4 (Homo sapiens, UniProt O00444)
- Sequence (O00444 whole entry): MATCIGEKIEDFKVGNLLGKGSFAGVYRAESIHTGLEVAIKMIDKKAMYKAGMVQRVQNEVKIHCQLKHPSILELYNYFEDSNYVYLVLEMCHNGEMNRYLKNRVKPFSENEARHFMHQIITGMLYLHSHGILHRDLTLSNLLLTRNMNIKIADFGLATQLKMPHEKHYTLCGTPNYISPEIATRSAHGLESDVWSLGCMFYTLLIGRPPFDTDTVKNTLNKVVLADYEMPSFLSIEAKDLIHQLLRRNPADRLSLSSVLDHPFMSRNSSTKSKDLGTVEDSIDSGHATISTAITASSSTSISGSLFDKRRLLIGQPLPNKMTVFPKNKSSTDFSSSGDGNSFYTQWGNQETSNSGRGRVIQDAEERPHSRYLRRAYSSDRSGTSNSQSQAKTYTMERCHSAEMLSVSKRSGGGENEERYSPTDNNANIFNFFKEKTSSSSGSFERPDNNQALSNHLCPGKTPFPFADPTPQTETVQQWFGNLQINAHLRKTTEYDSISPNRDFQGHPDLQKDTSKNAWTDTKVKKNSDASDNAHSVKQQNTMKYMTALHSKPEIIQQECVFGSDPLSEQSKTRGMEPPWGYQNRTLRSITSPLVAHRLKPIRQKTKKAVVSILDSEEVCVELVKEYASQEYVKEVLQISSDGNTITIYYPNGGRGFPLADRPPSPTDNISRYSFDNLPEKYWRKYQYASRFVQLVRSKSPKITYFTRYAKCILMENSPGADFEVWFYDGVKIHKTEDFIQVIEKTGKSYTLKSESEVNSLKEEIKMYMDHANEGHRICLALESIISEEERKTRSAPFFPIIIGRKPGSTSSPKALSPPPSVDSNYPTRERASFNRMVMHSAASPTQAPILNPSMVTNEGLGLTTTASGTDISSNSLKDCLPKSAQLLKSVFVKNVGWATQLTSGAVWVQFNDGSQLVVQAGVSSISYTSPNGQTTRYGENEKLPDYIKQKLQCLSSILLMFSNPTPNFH
- RUN DESCRIPTION: PLK4 Biochemical Assay (ADP-Glo)
- TEST CONTEXT: 0.5 nM PLK4, 8.0 μM ATP, 4.7 μM MBP, 6 hours at RT
Below: a set of entries, each annotated with reported IC50.

CHEMICAL STRUCTURE | IC50 [nM]
COc1ccc2c(c1)[C@]1(C[C@H]1c1ccc3c(Nc4cc5c(cc4OC)S(=O)(=O)CC5)n[nH]c3c1)C(=O)N2 | 0.797
CCOc1ncc(-c2nccs2)cc1Nc1n[nH]c2cc([C@@H]3C[C@@]34C(=O)Nc3ccc(OC)cc34)ccc12 | 0.722
COc1ccc2c(c1)[C@]1(C[C@H]1c1ccc3c(Nc4nc(-c5cnn(C)c5)cnc4OC)n[nH]c3c1)C(=O)N2 | 0.408
COc1ccc2c(c1)[C@]1(C[C@H]1c1ccc3c(Nc4nc(-c5cncnc5)ncc4OC)n[nH]c3c1)C(=O)N2 | 2.41
COc1ccc2c(c1)[C@]1(C[C@H]1c1ccc3c(Nc4nc(-c5ncco5)cnc4OC)n[nH]c3c1)C(=O)N2 | 0.99
COc1ccc2c(c1)[C@]1(C[C@H]1c1ccc3c(Nc4cc(-c5cnn(CC(F)F)c5)ccc4OC)n[nH]c3c1)C(=O)N2 | 1.93
COc1ccc2c(c1)[C@]1(C[C@H]1c1ccc3c(Nc4ccc(C5(N(C)C)COC5)cc4OC)n[nH]c3c1)C(=O)N2 | 0.862

The measured values listed here are drawn from patent US20260108527A1.
